Please provide measured Plant response rating, Wheat for the entries that follow.
Tested on: wheat (winter wheat, Triticum aestivum)
Assay: Test C greenhouse herbicide test, pre- and postemergence
Assay type: in vivo
Settings: Preemergence, 62 g ai/ha; scale 0 to 100, 0 is no effect, 100 is complete control

Q: Name the reported Plant response rating, Wheat value associated with the compound Cc1sc2ccccc2c1-c1c(O)c(Cl)nn(C)c1=O [Compound 89]
A: 0

Q: Name the reported Plant response rating, Wheat value associated with the compound CC(=O)Oc1c(Cl)nn(C)c(=O)c1-c1c(C)sc2ccc(C(F)(F)F)cc12 [Compound 152]
A: 10

Q: Name the reported Plant response rating, Wheat value associated with the compound Cc1nn(C)c(=O)c(-c2c(C)sc3ccc(C(F)(F)F)cc23)c1O [Compound 121]
A: 0

Q: Name the reported Plant response rating, Wheat value associated with the compound Cc1nn(C)c(=O)c(-c2ccc(Br)c3ccccc23)c1O [Compound 75]
A: 0

Q: Name the reported Plant response rating, Wheat value associated with the compound CC(=O)Oc1c(C)nn(C)c(=O)c1-c1c(C)sc2ccc(C(F)(F)F)cc12 [Compound 132]
A: 40

Q: Name the reported Plant response rating, Wheat value associated with the compound CCC(=O)Oc1c(C)nn(C)c(=O)c1-c1ccc(Br)c2ccccc12 [Compound 134]
A: 0

Q: Name the reported Plant response rating, Wheat value associated with the compound Cc1ccc2ccccc2c1-c1c(OC(=O)OC(C)C)c(C)nn(C)c1=O [Compound 72]
A: 0

Q: Name the reported Plant response rating, Wheat value associated with the compound Cc1nn(C)c(=O)c(-c2ccc(Cl)c3ccccc23)c1O [Compound 139]
A: 10

Q: Name the reported Plant response rating, Wheat value associated with the compound CC(=O)Oc1c(C)nn(C)c(=O)c1-c1c(C)cc(C)c2ccccc12 [Compound 99]
A: 0

Q: Name the reported Plant response rating, Wheat value associated with the compound Cn1nc(Br)c(O)c(-c2cccc3ccccc23)c1=O [Compound 20]
A: 0

Q: Name the reported Plant response rating, Wheat value associated with the compound CC(=O)Oc1c(C)nn(C)c(=O)c1-c1c(C)sc2ccc(Cl)cc12 [Compound 108]
A: 10

Q: Name the reported Plant response rating, Wheat value associated with the compound Cc1nn(C)c(=O)c(-c2c(C)sc3c(C)cc(Cl)cc23)c1O [Compound 35]
A: 5

Q: Name the reported Plant response rating, Wheat value associated with the compound CCc1sc2ccc(C)cc2c1-c1c(O)c(C)nn(C)c1=O [Compound 47]
A: 0

Q: Name the reported Plant response rating, Wheat value associated with the compound CCC(=O)Oc1c(OC)nn(C)c(=O)c1-c1c(C)sc2ccc(Cl)cc12 [Compound 131]
A: 0

----------
Tested on: field bindweed (Convolvulus arvensis)
Assay: Test E greenhouse herbicide test, pre- and postemergence
Format: in vivo
Settings: Preemergence, 31 g ai/ha; scale 0 to 100, 0 no effect, 100 complete control
Param threshold (50) applies to Plant response rating, Field Bindweed; output true (1) when value >= threshold, false (0) when value < threshold.

Q: Hello, I need to know if Cc1ccc2sc(C)c(-c3c(OC(=O)OC(C)C)c(C)nn(C)c3=O)c2c1 has measured Plant response rating, Field Bindweed not below 50. Thanks!
A: false (0)

Q: Hello, I need to know if Cc1ccc2ccccc2c1-c1c(O)c(I)nn(C)c1=O has measured Plant response rating, Field Bindweed not below 50. Thanks!
A: true (1)

Q: Hello, I need to know if COC(=O)Oc1c(C)nn(C)c(=O)c1-c1c(C)sc2ccc(C)cc12 has measured Plant response rating, Field Bindweed not below 50. Thanks!
A: false (0)

Q: Hello, I need to know if Cc1ccc2sc(Br)c(-c3c(O)c(C)nn(C)c3=O)c2c1 has measured Plant response rating, Field Bindweed not below 50. Thanks!
A: true (1)

Q: Hello, I need to know if Cc1ccc2ccccc2c1-c1c(OC(=O)OC(C)C)c(C)nn(C)c1=O has measured Plant response rating, Field Bindweed not below 50. Thanks!
A: false (0)
